Here, each record is paired with measured inhibition data.
target: Acyl-protein thioesterase 2 (Homo sapiens); experiment: LYPLA2 inhibitors, primary screen, counter-screen for PME1 inhibitor project, biochemical, fluorescence polarization, FP-Rh probe ABPP (AID 2177); conditions: recombinant LYPLA2, FP-Rh probe fluorescence polarization; at 5.9 µM; hits give high values;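 further: 0% = LYPLA2 with DMSO and 100% = wells lacking LYPLA2 enzyme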
The whole screen tested about 320,000 compounds, of which about 1,200 (0.38%) were called active. What follows is part of a selection rich in actives, with near analogues and random picks from the rest.
assay-metric: inhibition (%)

INSERT INTO measurements (compound, value_observed) VALUES
  ('COc1ccc(C(C#N)Nc2ccccc2C)cc1 (configuration not stated)', 2.16),
  ('CCOC(=O)N1CCN(S(=O)(=O)c2ccc3c(c2)C(C)C(=O)N3)CC1 (configuration not stated)', -2.51),
  ('CCCC(=O)N(CCc1ccccc1)Cc1nc2ccccc2c(=O)[nH]1', -5.43),
  ('COc1ccc2c(c1)C=CC1(O2)N(CCO)c2ccccc2C1(C)C (configuration not stated)', -20.1),
  ('COc1cccc(OC)c1C(=O)NC(=S)Nc1ccc(N2CCOCC2)c(Cl)c1', -0.51),
  ('Cc1cc(C)c(S(=O)(=O)N2CCC(C(=O)OCc3c(C)noc3C)CC2)c(C)c1', 5.23),
  ('CC(C)N(Cc1ccccc1)C(=O)COC(=O)c1ccccc1SCC(=O)N1CCCC1', 1.65),
  ('O=C(Nc1ccc(N2CCN(C(=O)c3ccccc3)CC2)c(Cl)c1)c1cccnc1', 27.9),
  ('COc1cc(NS(=O)(=O)c2ccc3ccccc3c2)c2ncccc2c1', -11.9),
  ('CCN(CC)c1ccc(C(=O)Nn2c(C)nc3ccccc3c2=O)cc1', 4.7),
  ('CCN(CC)c1ccc(C(=O)NNC(=O)CCc2nc3ccccc3c(=O)[nH]2)cc1', 26.9),
  ('Cc1nn(Cc2ccccc2)c(C)c1CNC(=O)c1ccc(F)c(S(=O)(=O)N2CCOCC2)c1', 29.7),
  ('CN1CCN(c2ccc(S(=O)(=O)N3CCOCC3)cc2NC(=O)CCc2ccccc2)CC1', 6.09),
  ('COC(=O)c1ccc(CN2CCCC(C(=O)Nc3cccc(-n4cnnn4)c3)C2)cc1 (configuration not stated)', 2.89),
  ('COc1ccc([C@H]2CC(=O)C=C(c3ccc(C)cc3)C2)cc1', 15.7),
  ('N#CCc1ccc(OC(=O)c2cccnc2)cc1', -0.53),
  ('CCCc1c(C(=O)Nc2ccc(F)cc2)cnn1-c1ccccc1', -3.93),
  ('CCOc1ccc(C(=O)NC(=S)Nc2ccc(NC(=O)C(C)C)cc2)cc1[N+](=O)[O-]', 19.4),
  ('CCC(C)CCN1CCN=C1N(C)C (configuration not stated)', 8.55),
  ('COc1ccc(C(CC(=O)Nc2ccc(C)cc2)NC(=O)C(F)(F)F)cc1 (configuration not stated)', -1.1),
  ('CCCCCCOc1ccc(OC(=O)c2cccnc2)cc1', 49.8),
  ('O=S(=O)(Nc1ccc(Cl)cn1)c1cnc(Cl)c(Br)c1', 2.67);
